# target_under_test: T1, cynomolgus monkey IL-21R expressed on CHO cells (cynomolgus monkey)
# T1 construct: whole, on cells
# assay_method_text: cell ELISA on transfected CHO cells, 13 nM IgG
measured_endpoint: A450 at 13 nM Ab in cell ELISA (A450)
Return type: number; implicit unit A450.

{"columns": ["binder", "readout_unit", "A450 at 13 nM Ab in cell ELISA"],
 "data": [
  ["AbB (antibody, human IgG1, V domains shown, Full-length human IgG1 / human lambda, transient, conditioned medium; Framework limits derived; also called VHP/VL3) VH: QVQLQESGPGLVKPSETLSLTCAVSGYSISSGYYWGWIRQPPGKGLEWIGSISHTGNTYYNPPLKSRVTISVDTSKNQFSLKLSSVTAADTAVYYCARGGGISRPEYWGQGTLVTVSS VL: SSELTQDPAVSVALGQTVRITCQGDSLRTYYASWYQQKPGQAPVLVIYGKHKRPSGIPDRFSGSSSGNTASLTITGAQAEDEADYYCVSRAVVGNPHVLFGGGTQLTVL", "A450", 1.33]
]}

Could you now consider this next binder?
Query :: # get_value(readout='A450 at 13 nM Ab in cell ELISA', item= AbL (antibody, human IgG1, V domains shown, Full-length human IgG1 / human lambda, transient, conditioned medium; Framework limits derived; also called VH3/VL13) VH: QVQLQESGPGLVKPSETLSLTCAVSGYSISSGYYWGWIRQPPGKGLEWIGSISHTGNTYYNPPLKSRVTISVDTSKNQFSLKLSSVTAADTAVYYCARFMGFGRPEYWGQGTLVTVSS VL: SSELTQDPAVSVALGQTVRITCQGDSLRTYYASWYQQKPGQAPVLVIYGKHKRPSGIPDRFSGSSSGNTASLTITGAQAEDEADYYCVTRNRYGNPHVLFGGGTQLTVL )
Result :: 1.51
